TEST: qHTS for induction of synthetic lethality in tumor cells producing 2HG: qHTS for the HT-1080-NT fibrosarcoma cell line;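 note: NT is the 2HG producing partner of a matched IDH1 knockdown line; nearly all actives have a fitted effect of over 55% in size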
DETAILS: HT-1080-NT fibrosarcoma viability, CellTiter-Glo ATP luminescence, 48 h; series mostly up to 46.1 µM
The whole screen tested about 360,000 compounds, of which about 6,000 (1.7%) were called active. Roughly 8% stayed inconclusive and do not appear here. Calls come from the whole dose curve; as a rule, active = well fitted cell-killing curve with a large enough effect; inconclusive = small, poorly fitted or top-dose-only effect, or effect the other way; inactive = flat fitted curve, though single readings scatter. The list comes from a sample in which actives are over-represented; it also holds close analogues and randomly drawn compounds.
Possible outcomes: TRUE for active, FALSE for inactive

- CC1CCCN1CCC(C(N)=O)(c1ccccc1)c1ccccc1 (stereo not given): FALSE
- C[C@]12CC[C@H](O)C[C@H]1CC[C@@H]1C2CC[C@]2(C)[C@@H](C3=CC(=O)OC3)[C@@H](O)C[C@]12O (stereo not given in full): TRUE
- C[C@]12CCC3C(CC[C@H]4C[C@@H](O)CC[C@]34C)C1CC[C@@H]2O (stereo not given in full): FALSE
- CC1=CC(=Cc2sc3ccccc3[n+]2C)C=C(C)O1: TRUE
- C[C@]12CCC3C(CC[C@H]4C[C@@H](O)CC[C@]34C)C1C[C@@H](O)[C@H]2O (stereo not given in full): FALSE
